- study.system: hCA I (Homo sapiens, UniProt P00915)
- Sequence (P00915 whole entry): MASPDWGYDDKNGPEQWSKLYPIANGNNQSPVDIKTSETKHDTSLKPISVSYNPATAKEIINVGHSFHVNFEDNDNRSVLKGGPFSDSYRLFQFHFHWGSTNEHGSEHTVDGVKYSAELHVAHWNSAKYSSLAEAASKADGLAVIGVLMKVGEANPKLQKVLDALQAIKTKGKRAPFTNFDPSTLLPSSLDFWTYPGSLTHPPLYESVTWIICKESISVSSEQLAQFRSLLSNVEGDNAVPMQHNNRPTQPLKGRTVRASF
- procedure.summary: biochemical
- experimental.conditions: esterase activity, p-nitrophenylacetate substrate, Lineweaver-Burk; mean ± SD; read-out: KI hCA I
Catalogue of compounds with associated pKi
The read-out pKi is expressed as -log10 of concentration in moles per litre.

Past entries and their recorded results:
INSERT INTO results (structure_string, result_number) VALUES
  ('NS(=O)(=O)c1cccc(NCc2cccc(Br)c2O)c1', 7.28),
  ('NS(=O)(=O)c1ccc(N=Cc2cccc(Br)c2O)cc1', 7.09),
  ('NS(=O)(=O)c1cccc(N=Cc2cccc(Br)c2O)c1', 7.22),
  ('NS(=O)(=O)c1cccc(NCc2cccc(Cl)c2O)c1', 7.00),
  ('NS(=O)(=O)c1ccc(NCc2cccc(Br)c2O)cc1', 7.21);

// below: pKi requested for another compound
Give pKi for the following compound: NS(=O)(=O)c1ccc(N=Cc2cccc(Cl)c2O)cc1 7.40
